Items are presented alongside their recorded inhibition at 1000 µM.
target: SpNanB (Streptococcus pneumoniae serotype 4, UniProt Q54727, E68D/K536E/K577E/N393D/S59P); assay: Sialidase inhibition assay (Example 7); type: biochemical; details: pH 6, read-out: Percentage inhibition (%) against SpNanB
Sequence (Q54727 30-697 S59P/E68D/N393D/K536E/K577E): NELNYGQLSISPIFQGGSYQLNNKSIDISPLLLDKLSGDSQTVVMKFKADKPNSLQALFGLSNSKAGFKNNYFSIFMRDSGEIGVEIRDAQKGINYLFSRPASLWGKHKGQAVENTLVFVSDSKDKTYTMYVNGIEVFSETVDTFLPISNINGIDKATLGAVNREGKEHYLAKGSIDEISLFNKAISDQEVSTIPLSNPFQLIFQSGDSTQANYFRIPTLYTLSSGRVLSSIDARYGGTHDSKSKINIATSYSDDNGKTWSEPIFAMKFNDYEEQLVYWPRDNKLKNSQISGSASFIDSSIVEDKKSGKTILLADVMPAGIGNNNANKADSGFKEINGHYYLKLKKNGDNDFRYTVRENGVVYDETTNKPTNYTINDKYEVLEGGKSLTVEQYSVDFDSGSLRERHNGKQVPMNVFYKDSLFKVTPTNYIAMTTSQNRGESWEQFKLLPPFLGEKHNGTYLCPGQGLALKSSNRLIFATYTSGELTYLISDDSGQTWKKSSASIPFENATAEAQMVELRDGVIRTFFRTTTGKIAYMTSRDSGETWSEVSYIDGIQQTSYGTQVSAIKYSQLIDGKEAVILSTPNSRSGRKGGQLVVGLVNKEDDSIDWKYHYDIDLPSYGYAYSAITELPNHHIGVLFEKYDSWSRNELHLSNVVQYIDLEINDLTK
# unit: % | format: bare number

Examples from the recorded data:
1. CC(=O)N[C@H]1[C@H]([C@H](O)[C@H](O)CO)OC(C(=O)O)=C[C@@H]1O [compound 6, reference compound]
26.1
2. CC(=O)N[C@H]1[C@H]2O[C@@](C(=O)O)(C[C@@H]1O)O[C@@H]2[C@H](O)CO
30
3. O=C(N[C@H]1[C@H]2O[C@@](C(=O)O)(C[C@@H]1O)O[C@@H]2[C@H](O)CO)C(F)(F)F
68.2
4. N[C@H]1[C@H]2O[C@@](C(=O)O)(C[C@@H]1O)O[C@@H]2[C@H](O)CO
11.7

Shift focus to the following entry.
Memo: O=C(O)[C@@]12C[C@@H](O)[C@@H](NC3CCCCC3)C(O1)[C@@H]([C@H](O)CO)O2 , reported inhibition at 1000 µM: 86.6

====

Items are presented alongside their recorded inhibition at 1000 µM.
Molecular target: AuSialidase (Paenarthrobacter ureafaciens)
Sequence (Q5W7Q2 39-990): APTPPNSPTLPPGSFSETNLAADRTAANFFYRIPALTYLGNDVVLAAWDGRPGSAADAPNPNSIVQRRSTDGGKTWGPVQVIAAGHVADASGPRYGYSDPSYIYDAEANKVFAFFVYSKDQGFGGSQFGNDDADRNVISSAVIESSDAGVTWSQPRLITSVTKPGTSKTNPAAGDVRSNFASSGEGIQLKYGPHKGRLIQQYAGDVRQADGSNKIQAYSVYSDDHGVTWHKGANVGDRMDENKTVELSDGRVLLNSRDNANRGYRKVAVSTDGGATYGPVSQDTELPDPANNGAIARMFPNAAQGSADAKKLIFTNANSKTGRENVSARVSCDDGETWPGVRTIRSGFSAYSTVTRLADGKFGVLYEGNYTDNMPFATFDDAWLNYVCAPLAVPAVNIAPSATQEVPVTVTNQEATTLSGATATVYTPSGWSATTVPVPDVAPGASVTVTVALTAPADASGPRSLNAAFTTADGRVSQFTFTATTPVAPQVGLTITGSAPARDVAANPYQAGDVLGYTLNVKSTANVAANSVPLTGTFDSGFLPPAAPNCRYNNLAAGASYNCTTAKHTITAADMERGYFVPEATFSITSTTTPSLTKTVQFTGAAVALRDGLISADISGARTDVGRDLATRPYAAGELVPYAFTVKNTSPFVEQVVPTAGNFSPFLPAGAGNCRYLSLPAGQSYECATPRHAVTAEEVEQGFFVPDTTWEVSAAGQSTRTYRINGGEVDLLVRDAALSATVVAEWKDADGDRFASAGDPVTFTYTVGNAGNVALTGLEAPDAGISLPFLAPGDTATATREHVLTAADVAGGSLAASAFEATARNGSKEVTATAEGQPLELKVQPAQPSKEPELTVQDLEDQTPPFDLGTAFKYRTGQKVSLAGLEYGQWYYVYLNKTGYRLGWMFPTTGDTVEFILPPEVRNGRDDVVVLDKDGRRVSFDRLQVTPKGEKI
Assay: Sialidase inhibition assay (Example 7)
Type: biochemical, Arthrobacter ureafaciens
Conditions: 1 mM of each inhibitor; substrate Neu5Acα2-3GalβpNP 0.3 mM; pH 5.5; read-out: Percentage inhibition (%) against AuSialidase
# unit: % | format: bare number

Memo: O=C(O)[C@@]12C[C@@H](O)[C@@H](NC3CCCCC3)C(O1)[C@@H]([C@H](O)CO)O2 , reported inhibition at 1000 µM: 16.8

Memo: O=C(N[C@H]1[C@H]2O[C@@](C(=O)O)(C[C@@H]1O)O[C@@H]2[C@H](O)CO)C(F)(F)F , reported inhibition at 1000 µM: 85.1

Memo: CC(=O)N[C@H]1[C@H]2O[C@@](C(=O)O)(C[C@@H]1O)O[C@@H]2[C@H](O)CO , reported inhibition at 1000 µM: 49.4

Memo: CC(=O)N[C@H]1[C@H]([C@H](O)[C@H](O)CO)OC(C(=O)O)=C[C@@H]1O [compound 6, reference compound] , reported inhibition at 1000 µM: 99.6

Memo: N[C@H]1[C@H]2O[C@@](C(=O)O)(C[C@@H]1O)O[C@@H]2[C@H](O)CO , reported inhibition at 1000 µM: 1.3

====

Items are presented alongside their recorded inhibition at 1000 µM.
biological target: PmST1 (Pasteurella multocida); test: Sialidase inhibition assay (Example 7); assay type: biochemical; conditions: 1 mM of each inhibitor; substrate Neu5Acα2-3GalβpNP 0.3 mM; CMP 0.4 mM; pH 5.5; read-out: Percentage inhibition (%) against PmST1
Sequence (Q15KI8 entry or part of it): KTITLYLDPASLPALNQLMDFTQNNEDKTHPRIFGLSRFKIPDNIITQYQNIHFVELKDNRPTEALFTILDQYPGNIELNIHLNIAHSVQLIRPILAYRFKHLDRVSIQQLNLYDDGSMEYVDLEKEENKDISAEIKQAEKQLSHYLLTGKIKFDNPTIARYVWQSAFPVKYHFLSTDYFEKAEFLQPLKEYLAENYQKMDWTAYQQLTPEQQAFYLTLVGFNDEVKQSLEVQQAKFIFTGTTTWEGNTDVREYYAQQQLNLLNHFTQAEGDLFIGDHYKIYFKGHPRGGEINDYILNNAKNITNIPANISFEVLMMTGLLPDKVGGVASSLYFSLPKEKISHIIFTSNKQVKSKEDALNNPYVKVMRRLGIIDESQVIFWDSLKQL
# unit: % | format: bare number

Examples from the recorded data:
1) O=C(N[C@H]1[C@H]2O[C@@](C(=O)O)(C[C@@H]1O)O[C@@H]2[C@H](O)CO)C(F)(F)F
11
2) CC(=O)N[C@H]1[C@H]([C@H](O)[C@H](O)CO)OC(C(=O)O)=C[C@@H]1O [compound 6, reference compound]
15.8
3) N[C@H]1[C@H]2O[C@@](C(=O)O)(C[C@@H]1O)O[C@@H]2[C@H](O)CO
13.8
4) CC(=O)N[C@H]1[C@H]2O[C@@](C(=O)O)(C[C@@H]1O)O[C@@H]2[C@H](O)CO
10.2

Shift focus to the following entry.
Summary: O=C(O)[C@@]12C[C@@H](O)[C@@H](NC3CCCCC3)C(O1)[C@@H]([C@H](O)CO)O2 , PmST1 (Pasteurella multocida), inhibition at 1000 µM = 12.3

====

test system: CpNanI; assay type: biochemical, Clostridium perfringens; settings: 0.1 mM of each inhibitor; substrate Neu5Acα2-3GalβpNP 0.3 mM; pH 5.0
Think of 40% as a floor: if Percentage inhibition (%) against CpNanI stands on it or above, it is MET; beneath it, NOT MET.

Check out these entries, answers already filled in.
1. CC(=O)NC[C@@H](O)[C@@H](O)[C@@H]1OC(C(=O)O)=C[C@H](O)[C@H]1NC(C)=O
MET
2. CC(=O)N[C@@H]1C(O)C=C(C(=O)O)OC1[C@H](O)[C@H](O)CNC(=O)C1CC1 (stereo partly drawn)
MET
3. O=C(CO)N[C@@H]1C(O)C=C(C(=O)O)OC1[C@H](O)[C@H](O)CO (stereo partly drawn)
NOT MET
4. CC(=O)N[C@@H]1C(O)C=C(C(=O)O)OC1C[C@H](O)CO (stereo partly drawn)
MET

stdin: Check the entry O=C(Cc1ccccc1)N[C@H]1[C@H]([C@H](O)[C@H](O)CO)OC(C(=O)O)=C[C@@H]1O : does Percentage inhibition (%) against CpNanI equal or exceed 40%?
stdout: NOT MET

====

target: AuSialidase (Paenarthrobacter ureafaciens, UniProt Q5W7Q2); test: Sialidase inhibition assay (Example 4); assay type: biochemical, Arthrobacter ureafaciens; details: pH 5.5, read-out: Percentage inhibition (%) against AuSialidase, 0.1 mM of each inhibitor, substrate Neu5Acα2-3GalβpNP 0.3 mM
Items are presented alongside their recorded inhibition at 100 µM.
# unit: % | format: bare number

Examples from the recorded data:
1. CC(=O)N[C@@H]1C(O)C=C(C(=O)O)OC1[C@H](O)[C@H](O)CNC(=O)C1CC1 (stereo partly drawn) [compound 13]
61
2. O=C(Cc1ccccc1)N[C@H]1[C@H]([C@H](O)[C@H](O)CO)OC(C(=O)O)=C[C@@H]1O [compound 15]
13
3. CCCCC(=O)NC[C@@H](O)[C@@H](O)[C@@H]1OC(C(=O)O)=C[C@H](O)[C@H]1NC(C)=O [compound 12]
40
4. CC(=O)N[C@@H]1C(O)C=C(C(=O)O)OC1C[C@H](O)CO (stereo partly drawn) [compound 10]
85
5. CC(=O)NC[C@@H](O)[C@@H](O)[C@@H]1OC(C(=O)O)=C[C@H](O)[C@H]1NC(C)=O [compound 9]
60

Summary: O=C(CO)N[C@@H]1C(O)C=C(C(=O)O)OC1[C@H](O)[C@H](O)CO (stereo partly drawn) [compound 7] , AuSialidase (Paenarthrobacter ureafaciens, UniProt Q5W7Q2), inhibition at 100 µM = 47

====

biological target: SpNanA (Streptococcus pneumoniae); assay: Sialidase inhibition assay (Example 7); format: biochemical; details: pH 6, read-out: Percentage inhibition (%) against SpNanA
Sequence (P62575 54-1006): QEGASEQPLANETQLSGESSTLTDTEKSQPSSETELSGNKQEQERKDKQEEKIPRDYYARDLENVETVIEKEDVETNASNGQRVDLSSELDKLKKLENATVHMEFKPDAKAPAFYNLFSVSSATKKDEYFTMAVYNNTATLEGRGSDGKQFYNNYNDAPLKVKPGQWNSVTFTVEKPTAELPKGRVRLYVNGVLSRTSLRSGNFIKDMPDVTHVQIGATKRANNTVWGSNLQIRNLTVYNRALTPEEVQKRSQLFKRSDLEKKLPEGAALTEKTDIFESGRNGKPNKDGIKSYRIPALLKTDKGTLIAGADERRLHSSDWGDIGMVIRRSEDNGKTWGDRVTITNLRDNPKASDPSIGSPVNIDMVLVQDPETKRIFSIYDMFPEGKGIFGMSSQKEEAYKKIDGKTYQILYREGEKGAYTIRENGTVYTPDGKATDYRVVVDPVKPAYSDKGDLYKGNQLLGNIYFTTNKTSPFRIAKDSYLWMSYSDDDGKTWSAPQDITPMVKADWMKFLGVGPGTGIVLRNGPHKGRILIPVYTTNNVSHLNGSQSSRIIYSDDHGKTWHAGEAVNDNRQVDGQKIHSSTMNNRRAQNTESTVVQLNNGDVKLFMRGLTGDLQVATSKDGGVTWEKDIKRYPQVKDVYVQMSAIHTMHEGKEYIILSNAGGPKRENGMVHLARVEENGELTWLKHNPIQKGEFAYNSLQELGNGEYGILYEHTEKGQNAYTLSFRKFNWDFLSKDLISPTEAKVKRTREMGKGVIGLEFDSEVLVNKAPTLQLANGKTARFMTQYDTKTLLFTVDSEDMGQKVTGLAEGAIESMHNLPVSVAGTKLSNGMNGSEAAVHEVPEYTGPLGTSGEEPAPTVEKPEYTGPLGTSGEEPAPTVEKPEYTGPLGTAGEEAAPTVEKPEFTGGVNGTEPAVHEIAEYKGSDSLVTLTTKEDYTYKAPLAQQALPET
Items are presented alongside their recorded inhibition at 1000 µM.
Remember to put the unit after the number in your answer.

1. O=C(N[C@H]1[C@H]2O[C@@](C(=O)O)(C[C@@H]1O)O[C@@H]2[C@H](O)CO)C(F)(F)F [2-2]
83.8%
2. O=C(O)[C@@]12C[C@@H](O)[C@@H](NC3CCCCC3)C(O1)[C@@H]([C@H](O)CO)O2 [2-4]
61.2%
3. CC(=O)N[C@H]1[C@H]2O[C@@](C(=O)O)(C[C@@H]1O)O[C@@H]2[C@H](O)CO [2-1]
36.4%

Memo: CC(=O)N[C@H]1[C@H]([C@H](O)[C@H](O)CO)OC(C(=O)O)=C[C@@H]1O [compound 6, reference compound] , reported inhibition at 1000 µM: 98.9%

Memo: N[C@H]1[C@H]2O[C@@](C(=O)O)(C[C@@H]1O)O[C@@H]2[C@H](O)CO [2-3] , reported inhibition at 1000 µM: 19.3%
